The reported numbers originate from PubChem BioAssay (NCI).

# Test system: T-47D breast
# assayText: NCI-60 one-dose screen, 48 h
# conditionNotes: 10 µM unless noted
This is part of a sample that, as a whole, favours compounds with a hit. Of some 83,000 tested, about 20% had one in any assay. Active and inactive are the calls of the source. How the source made its calls: active means growth percent below 10; inactive means the rest.
Classes to choose from: active, inactive

GET /call?item= O=c1c2cccc3c(Nc4ccc(F)cc4)ccc(c32)c2nc3ccccc3n12 returns the recorded outcome of this test.
inactive

How was Cc1cccc(NC(=O)c2sc3nc4c(cc3c2N)CCC4)c1C classified in this test?
inactive

Could you please tell me the result logged for O=C(Nc1ccc(Cl)cc1)c1cc(-c2ccc(F)cc2)c2sc(=O)[nH]c2n1 in this assay?
active

# outcome recorded in this test, key = CCN(Cc1ccc(CN(CC)C(=O)C(Br)Br)cc1)C(=O)C(Br)Br
inactive

Which outcome did this test record for the molecule CCN(CC)CCSc1c2ccc(Cl)cc2nc2ccc(OC)cc12 ?
active

Fill in: this test's call for N#CC1=C(N)OC2=C(C(=O)CCC2)C1c1ccco1 (stereo unspecified) is ___
inactive
